# Study System: Luciferin 4-monooxygenase (Photinus pyralis)
# Procedure Summary: firefly luciferase enzyme inhibitors, primary screen, biochemical, luminescence, purified enzyme, 2006 set (AID 1141);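 note: cell-free assay with purified firefly luciferase at 100 ng per well in PBS; test concentration not given here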
# Assay Setup: SteadyGlo luminescence, 30 min, higher = more signal, called active from +8 up or from −8 down
So basically: z-score at -0.6 or higher? That is criterion met. Lower than -0.6? That is criterion not met.

Query block: Does z-score meet or surpass -0.6 for COc1ccc(CCN2C(=O)[C@@]3(Cc4ccccc42)c2ccccc2C(=O)N(Cc2ccccc2Cl)[C@H]3c2ccc(CO)cc2)cc1 ?
Result block: criterion not met

Query block: State whether the measured z-score reaches -0.6, counting equality as reaching it, for C=C(COC)C(=O)CC[C@@H](OC(=O)c1cccnc1)c1ccc(CO)o1
Result block: criterion not met

Query block: Quick check: does COC(=O)c1ccc(C(O)C2C=CC3C(=O)N(c4ccccc4)C(=O)C3N2Nc2ccc(C#N)cc2)o1 (configuration not stated) have z-score greater than or equal to -0.6?
Result block: criterion not met

Query block: Could you tell me if the measured z-score of COc1ccccc1CN1C(=O)c2ccccc2[C@@H](C(=O)NCCN2CCOCC2)[C@@H]1c1ccc(CO)cc1 reaches -0.6 or more?
Result block: criterion met

Query block: Decide: z-score of O=C(O)[C@@]1(Cc2ccccc2)N=C(c2ccc(OCCCO)cc2)O[C@H]1c1ccccc1 >= -0.6?
Result block: criterion met

Query block: In plain terms: is recorded z-score at least -0.6 for CC(C)C[C@@H]1NC(=O)[C@@H]2C[C@H](C(=O)NCCCCCC[N+](C)(C)C)[C@H](c3ccc(O)cc3)N2C1=O ?
Result block: criterion met

Values from PubChem BioAssay
